Where do the numbers come from? From patent US8772500B2.

- Assayed System: human TRPV3 (Homo sapiens, UniProt Q8NET8)
- Construct: expressed in transfected cells
- Sequence (Q8NET8 whole entry): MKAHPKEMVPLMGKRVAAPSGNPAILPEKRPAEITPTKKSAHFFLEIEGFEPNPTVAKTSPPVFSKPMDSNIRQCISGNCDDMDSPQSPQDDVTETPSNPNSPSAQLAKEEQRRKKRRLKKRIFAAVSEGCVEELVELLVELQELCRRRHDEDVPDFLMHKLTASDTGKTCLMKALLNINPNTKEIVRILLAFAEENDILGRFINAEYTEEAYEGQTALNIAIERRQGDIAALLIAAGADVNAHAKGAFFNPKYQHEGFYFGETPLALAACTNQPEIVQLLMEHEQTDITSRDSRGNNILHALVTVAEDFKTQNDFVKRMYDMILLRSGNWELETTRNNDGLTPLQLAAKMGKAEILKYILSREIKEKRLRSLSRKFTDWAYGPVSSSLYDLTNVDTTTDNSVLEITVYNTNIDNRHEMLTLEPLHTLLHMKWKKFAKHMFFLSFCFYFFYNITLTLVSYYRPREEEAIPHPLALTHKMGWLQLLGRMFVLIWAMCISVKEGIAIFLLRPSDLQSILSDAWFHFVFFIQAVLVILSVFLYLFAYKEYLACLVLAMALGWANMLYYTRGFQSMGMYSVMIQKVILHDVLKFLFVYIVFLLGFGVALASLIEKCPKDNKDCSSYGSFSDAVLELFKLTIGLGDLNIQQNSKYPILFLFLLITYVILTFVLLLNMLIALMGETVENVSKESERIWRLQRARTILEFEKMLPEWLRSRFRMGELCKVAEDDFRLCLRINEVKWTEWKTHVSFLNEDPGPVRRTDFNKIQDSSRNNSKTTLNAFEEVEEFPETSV
- Protocol Notes: In vitro antagonism of recombinant human TRPV3 activation (FLIPR Tetra calcium assay, 2-APB as agonist)
- Assay type: cell-based
- Condition Set: HEK293 cells stably expressing human TRPV3; 2-APB 80 μM; range class; read-out: IC50 (reported range)
Readout Label: IC50

Consider the worked cases shown below.
[
  {
    "Molecule": "NC1CCCC1C(O)C1(c2ccccc2OC(F)(F)F)CCC1 (stereo not shown)",
    "Reported": "1100 to 5000 nM"
  },
  {
    "Molecule": "OC(c1ccccn1)C1(c2cccc(F)c2)CCC1 (stereo not shown)",
    "Reported": "50 to 500 nM"
  },
  {
    "Molecule": "OC(c1ccccn1)C1(c2cccc(C(F)(F)F)c2)CCC1 (stereo not shown)",
    "Reported": "50 to 500 nM"
  },
  {
    "Molecule": "OC(c1ccccn1)C1(c2ccc(C(F)(F)F)cc2)CNC1 (stereo not shown)",
    "Reported": "5100 to 20000 nM"
  },
  {
    "Molecule": "OC1CC(c2cc(C(F)(F)F)ccn2)(C(O)c2ccccn2)C1 (stereo not shown) [Example 282]",
    "Reported": "501 to 1000 nM"
  }
]

Problem: Dear colleague, please send me the reported IC50 for OC(c1ccccn1)C1(C2=CCC(F)(F)CC2)CCC1 (stereo not shown) when you can.
Result: 5100 to 20000 nM

Problem: Return IC50 (reported value) for this molecule: OC1CC(c2ccc(C(F)(F)F)cc2)(C(O)c2ccccn2)C1 (stereo not shown) [Example 201]
Result: 5100 to 20000 nM

Problem: Return the recorded IC50 value; entry: Cc1ccccc1C1(C(O)c2ccccn2)CCCO1 (stereo not shown)
Result: 50 to 500 nM

Problem: Answer with the recorded IC50 of `N[C@H]1CCC[C@H]1[C@@H](O)C1(c2ccc(OC(F)(F)F)cc2)CCC1` only.
Result: 1100 to 5000 nM

Problem: Please report IC50 for the following molecule: OC(c1ccccn1)C1(c2ccc(C(F)(F)F)cc2)CC(F)(F)C1 (stereo not shown)
Result: 50 to 500 nM
